// values below are reported GI50
# Tested on: TK-10
# EXPERIMENT NOTES: NCI 60 cell line five dose, Renal Cancer
MEASURE: GI50 (nM)

- CPD SMILES: "C=C1C(=O)O[C@H]2[C@H]1CC/C(COC(=O)CCC(=O)NCCCCCCCCCNC(=O)CCC(=O)OC/C1=C/CC[C@@]3(C)O[C@H]3[C@H]3OC(=O)C(=C)[C@@H]3CC1)=C\\CC[C@@]1(C)O[C@@H]21"
  MEAS VALUE: 1780
- CPD SMILES: "C=C1C(=O)O[C@H]2[C@H]1CC/C(COC(=O)CCC(=O)NCCCCCCCCNC(=O)CCC(=O)OC/C1=C/CC[C@@]3(C)O[C@H]3[C@H]3OC(=O)C(=C)[C@@H]3CC1)=C\\CC[C@@]1(C)O[C@@H]21"
  MEAS VALUE: 20800
- CPD SMILES: "C=C1C(=O)O[C@H]2[C@H]1CC/C(COC(=O)NCCCCCNC(=O)OC/C1=C/CC[C@@]3(C)O[C@H]3[C@H]3OC(=O)C(=C)[C@@H]3CC1)=C\\CC[C@@]1(C)O[C@@H]21"
  MEAS VALUE: 1820
- CPD SMILES: "C=C1C(=O)O[C@H]2[C@H]1CC/C(COC(=O)NCCCCNC(=O)OC/C1=C/CC[C@@]3(C)O[C@H]3[C@H]3OC(=O)C(=C)[C@@H]3CC1)=C\\CC[C@@]1(C)O[C@@H]21"
  MEAS VALUE: 1610

* * *

# System: T-47D

- CPD SMILES: "C=C1C(=O)O[C@H]2[C@H]1CC/C(COC(=O)CCC(=O)NCCCCCCCCCNC(=O)CCC(=O)OC/C1=C/CC[C@@]3(C)O[C@H]3[C@H]3OC(=O)C(=C)[C@@H]3CC1)=C\\CC[C@@]1(C)O[C@@H]21"
  CC50: "> 100 µM"

* * *

# System: SNB-75
# EXPERIMENT NOTES: NCI 60 cell line five dose, CNS Cancer
# CONDITION LABEL: read-out: LC50, molar
MEASURE: CC50

- MOLECULE: "C=C1C(=O)O[C@H]2[C@H]1CC/C(COC(=O)NCCCCCCCCNC(=O)OC/C1=C/CC[C@@]3(C)O[C@H]3[C@H]3OC(=O)C(=C)[C@@H]3CC1)=C\\CC[C@@]1(C)O[C@@H]21 [JVM 3-62]"
  MEAS VALUE: "9.84 µM"

* * *

# System: UO-31
# EXPERIMENT NOTES: NCI 60 cell line five dose, Renal Cancer
# CONDITION LABEL: read-out: LC50
MEASURE: CC50 (µM)

- COMPOUND: "C=C1C(=O)O[C@H]2[C@H]1CC/C(COC(=O)NCCCCCNC(=O)OC/C1=C/CC[C@@]3(C)O[C@H]3[C@H]3OC(=O)C(=C)[C@@H]3CC1)=C\\CC[C@@]1(C)O[C@@H]21 [JVM 2-76]"
  MEAS VALUE: 52.3
- COMPOUND: "C=C1C(=O)O[C@H]2[C@H]1CC/C(COC(=O)NCCCCNC(=O)OC/C1=C/CC[C@@]3(C)O[C@H]3[C@H]3OC(=O)C(=C)[C@@H]3CC1)=C\\CC[C@@]1(C)O[C@@H]21 [JVM 3-54]"
  MEAS VALUE: 47.7

* * *

# System: NCI-H226
# EXPERIMENT NOTES: NCI 60 cell line five dose, Non-Small Cell Lung Cancer
# CONDITION LABEL: read-out: LC50
Measured CC50, listed per entry for reference.
MEASURE: CC50 (µM)

- CPD SMILES: "C=C1C(=O)O[C@H]2[C@H]1CC/C(COC(=O)NCCCCNC(=O)OC/C1=C/CC[C@@]3(C)O[C@H]3[C@H]3OC(=O)C(=C)[C@@H]3CC1)=C\\CC[C@@]1(C)O[C@@H]21"
  MEASURED TARGET: "NCI-H226"
  UNIT OF MEASUREMENT: "µM"
  MEAS VALUE: 81.6
- CPD SMILES: "C=C1C(=O)O[C@H]2[C@H]1CC/C(COC(=O)NCCCCCNC(=O)OC/C1=C/CC[C@@]3(C)O[C@H]3[C@H]3OC(=O)C(=C)[C@@H]3CC1)=C\\CC[C@@]1(C)O[C@@H]21"
  MEASURED TARGET: "NCI-H226"
  UNIT OF MEASUREMENT: "µM"
  MEAS VALUE: 30.9

* * *

For NCI-H322M, measured CC50 is reported for the entries below.

- CPD SMILES: "C=C1C(=O)O[C@H]2[C@H]1CC/C(COC(=O)CCC(=O)NCCCCCCCCCNC(=O)CCC(=O)OC/C1=C/CC[C@@]3(C)O[C@H]3[C@H]3OC(=O)C(=C)[C@@H]3CC1)=C\\CC[C@@]1(C)O[C@@H]21"
  COMPARISON SIGN: "="
  CC50 (µM): 61.3
- CPD SMILES: "C=C1C(=O)O[C@H]2[C@H]1CC/C(COC(=O)NCCCCCNC(=O)OC/C1=C/CC[C@@]3(C)O[C@H]3[C@H]3OC(=O)C(=C)[C@@H]3CC1)=C\\CC[C@@]1(C)O[C@@H]21"
  COMPARISON SIGN: ">"
  CC50 (µM): 100
- CPD SMILES: "C=C1C(=O)O[C@H]2[C@H]1CC/C(COC(=O)CCC(=O)NCCCCCCCCNC(=O)CCC(=O)OC/C1=C/CC[C@@]3(C)O[C@H]3[C@H]3OC(=O)C(=C)[C@@H]3CC1)=C\\CC[C@@]1(C)O[C@@H]21"
  COMPARISON SIGN: "="
  CC50 (µM): 60.5

* * *

Below are compounds with their CC50 as measured on DU-145.

- CPD SMILES: "C=C1C(=O)O[C@H]2[C@H]1CC/C(COC(=O)CCC(=O)NCCCCCCCCNC(=O)CCC(=O)OC/C1=C/CC[C@@]3(C)O[C@H]3[C@H]3OC(=O)C(=C)[C@@H]3CC1)=C\\CC[C@@]1(C)O[C@@H]21"
  UNIT OF MEASUREMENT: "µM"
  CC50: 6.81
- CPD SMILES: "C=C1C(=O)O[C@H]2[C@H]1CC/C(COC(=O)CCC(=O)NCCCCCCCCCNC(=O)CCC(=O)OC/C1=C/CC[C@@]3(C)O[C@H]3[C@H]3OC(=O)C(=C)[C@@H]3CC1)=C\\CC[C@@]1(C)O[C@@H]21"
  UNIT OF MEASUREMENT: "µM"
  CC50: 5.78

* * *

# System: RXF 393
# EXPERIMENT NOTES: NCI 60 cell line five dose, Renal Cancer
# CONDITION LABEL: read-out: LC50

- CPD SMILES: "C=C1C(=O)O[C@H]2[C@H]1CC/C(COC(=O)NCCCCCNC(=O)OC/C1=C/CC[C@@]3(C)O[C@H]3[C@H]3OC(=O)C(=C)[C@@H]3CC1)=C\\CC[C@@]1(C)O[C@@H]21"
  CC50 / µM: 6.35
- CPD SMILES: "C=C1C(=O)O[C@H]2[C@H]1CC/C(COC(=O)NCCCCNC(=O)OC/C1=C/CC[C@@]3(C)O[C@H]3[C@H]3OC(=O)C(=C)[C@@H]3CC1)=C\\CC[C@@]1(C)O[C@@H]21"
  CC50 / µM: 7.84

* * *

# Test system: MOLT-4
# EXPERIMENT NOTES: NCI 60 cell line five dose, Leukemia
# CONDITION LABEL: read-out: LC50, molar
MEASURE: CC50

- CPD SMILES: "C=C1C(=O)O[C@H]2[C@H]1CC/C(COC(=O)NCCCCCCCCNC(=O)OC/C1=C/CC[C@@]3(C)O[C@H]3[C@H]3OC(=O)C(=C)[C@@H]3CC1)=C\\CC[C@@]1(C)O[C@@H]21"
  MEAS VALUE: "> 100 µM"

* * *

# Tested on: RXF 393
# EXPERIMENT NOTES: NCI 60 cell line five dose, Renal Cancer

- MOLECULE: "C=C1C(=O)O[C@H]2[C@H]1CC/C(COC(=O)NCCCCCNC(=O)OC/C1=C/CC[C@@]3(C)O[C@H]3[C@H]3OC(=O)C(=C)[C@@H]3CC1)=C\\CC[C@@]1(C)O[C@@H]21 [JVM 2-76]"
  MEASURED TARGET: "RXF 393"
  GI50, µM: 0.85
- MOLECULE: "C=C1C(=O)O[C@H]2[C@H]1CC/C(COC(=O)CCC(=O)NCCCCCCCCNC(=O)CCC(=O)OC/C1=C/CC[C@@]3(C)O[C@H]3[C@H]3OC(=O)C(=C)[C@@H]3CC1)=C\\CC[C@@]1(C)O[C@@H]21 [JVM 2-87]"
  MEASURED TARGET: "RXF 393"
  GI50, µM: 0.85
- MOLECULE: "C=C1C(=O)O[C@H]2[C@H]1CC/C(COC(=O)NCCCCNC(=O)OC/C1=C/CC[C@@]3(C)O[C@H]3[C@H]3OC(=O)C(=C)[C@@H]3CC1)=C\\CC[C@@]1(C)O[C@@H]21 [JVM 3-54]"
  MEASURED TARGET: "RXF 393"
  GI50, µM: 1.44
- MOLECULE: "C=C1C(=O)O[C@H]2[C@H]1CC/C(COC(=O)CCC(=O)NCCCCCCCCCNC(=O)CCC(=O)OC/C1=C/CC[C@@]3(C)O[C@H]3[C@H]3OC(=O)C(=C)[C@@H]3CC1)=C\\CC[C@@]1(C)O[C@@H]21 [JVM 2-92]"
  MEASURED TARGET: "RXF 393"
  GI50, µM: 1.01
